Listing of entries alongside the reported viability at 24 h, 200 µM.
test.protocol: Cytotoxicity by CCK-8 in Vero cells
Format: cell-based
experimental.conditions: 200 μM, 24 h, read-out: Cell viability (%)
No end group written: not given here.

> print(dat)
                construct.sequence  recorded.value
1  YGRKKRRQRRRGSGEAVREYCKEK [BP10]           83.1%

// next entry
Look at this sequence and give its reported viability at 24 h, 200 µM. YGRKKRRQRRRGSGEAVREYCK [BP8] 87.2%

----------
test.protocol: Cytotoxicity by CCK-8 in RD cells
Type: cell-based
experimental.conditions: human, RD cells, Cell viability (%)
readout.kind: viability at 24 h (%)
Your answer should be a plain number; it is taken to be in %.

Need viability at 24 h, item N=C(N)NCCC[C@H](NC(=O)[C@H](CCCNC(=N)N)NC(=O)[C@H](CCCNC(=N)N)NC(=O)[C@H](CCCNC(=N)N)NC(=O)[C@H](CCCNC(=N)N)NC(=O)[C@H](CCCNC(=N)N)NC(=O)[C@H](CCCNC(=N)N)NC(=O)[C@@H](N)CCCNC(=N)N)C(=O)O [R8, reference compound] 104
